Attribution: patent US20050101595A1

system: HCT-116 cell line; experiment: Inhibition of cell growth, tetrazolium salt (MTT) assay; type: cell-based; details: 0.25 μM compound; HCT-116; Table 2
Entry flag: true if HCT-116 % Inhibition at 0.25 μM reaches 30%; false if it does not.

COc1ccc(OC)c(NC(=O)N2CCC(Nc3nc(N)c(C(=O)c4c(F)cccc4F)s3)CC2)c1 | false
COC(=O)c1ccccc1NC(=O)N1CCC(Nc2nc(N)c(C(=O)c3c(F)cccc3F)s2)CC1 | false
CCCc1ccccc1NC(=O)N1CCC(Nc2nc(N)c(C(=O)c3c(F)cccc3F)s2)CC1 | true
Nc1nc(NC2CCN(C(=O)Nc3ccccc3Oc3ccccc3)CC2)sc1C(=O)c1c(F)cccc1F | true
COC(=O)c1cccc(NC(=O)N2CCC(Nc3nc(N)c(C(=O)c4c(F)cccc4F)s3)CC2)c1 | true
Nc1nc(NC2CCN(C(=O)Nc3ccccc3F)CC2)sc1C(=O)c1c(F)cccc1F | true
COc1ccc(NC(=O)N2CCC(Nc3nc(N)c(C(=O)c4c(F)cccc4F)s3)CC2)c(OC)c1 | false

Here's the next entry for you.
Input: Would you say CCOC(=O)C(Cc1ccccc1)NC(=O)N1CCC(Nc2nc(N)c(C(=O)c3c(F)cccc3F)s2)CC1 (centres unmarked) shows HCT-116 % Inhibition at 0.25 μM at minimum 30%?
Output: true

----------
Reported values of CDK2 % Inhibition at 0.03 μM for individual entries
target: CDK2/Cyclin A (Homo sapiens); assay: Inhibition of CDK2/Cyclin A Retinoblastoma Kinase Activity; format: biochemical; settings: at 0.03 μM
Just the number in %, nothing appended.

Nc1nc(NC2CCN(C(=O)c3ccccc3)CC2)sc1C(=O)c1c(F)cccc1F | 4

Input: Supply reported CDK2 % Inhibition at 0.03 μM belonging to this compound: `Nc1nc(NC2CCN(C(=O)c3ccccc3-c3ccccc3)CC2)sc1C(=O)c1c(F)cccc1F`
Output: 5

Input: Dear colleague, please send me the reported CDK2 % Inhibition at 0.03 μM for COc1ccc(C(=O)N2CCC(Nc3nc(N)c(C(=O)c4c(F)cccc4F)s3)CC2)c(OC)c1 [Example R116] when you can.
Output: 49

Input: Given the compound `Nc1nc(NC2CCN(C(=O)N3CCCC3)CC2)sc1C(=O)c1c(F)cccc1F` , write its reported CDK2 % Inhibition at 0.03 μM.
Output: −10

Input: Please look at this compound and report its CDK2 % Inhibition at 0.03 μM: COC(C(=O)N1CCC(Nc2nc(N)c(C(=O)c3c(F)cccc3F)s2)CC1)(c1ccccc1)C(F)(F)F (centres unmarked) [Example R39]
Output: −6

Input: Supply measured CDK2 % Inhibition at 0.03 μM of `Nc1nc(NC2CCN(C(=O)CSc3ccccc3)CC2)sc1C(=O)c1c(F)cccc1F` in your reply.
Output: 38

Input: Let me know recorded CDK2 % Inhibition at 0.03 μM for CC(C(=O)N1CCC(Nc2nc(N)c(C(=O)c3c(F)cccc3F)s2)CC1)c1ccccc1 (centres unmarked) , thanks.
Output: 7

Input: Given `COc1ccc(CCC(=O)N2CCC(Nc3nc(N)c(C(=O)c4c(F)cccc4F)s3)CC2)cc1` , respond with its CDK2 % Inhibition at 0.03 μM.
Output: 2

----------
Listed next: entries and their corresponding pKi.
target: human CDK4 and genetically truncated (1-264) cyclin D3 (Homo sapiens, UniProt P11802); assay: Inhibition of CDK4/Cyclin D Retinoblastoma Kinase Activity; settings: apparent Ki, CDK4/truncated cyclin D3, Rb fragment substrate, 25 μM ATP
Sequence (P11802 whole entry, the tested form may be a part): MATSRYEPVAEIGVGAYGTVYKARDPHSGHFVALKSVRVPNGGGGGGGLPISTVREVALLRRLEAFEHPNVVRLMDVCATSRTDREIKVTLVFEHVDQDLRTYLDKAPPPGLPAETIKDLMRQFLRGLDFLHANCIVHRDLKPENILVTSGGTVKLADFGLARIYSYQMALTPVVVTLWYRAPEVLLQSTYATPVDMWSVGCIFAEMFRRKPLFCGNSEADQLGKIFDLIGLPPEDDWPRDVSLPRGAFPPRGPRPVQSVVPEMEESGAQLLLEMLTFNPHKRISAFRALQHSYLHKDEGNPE
Sequence (P30281 1-264 partner): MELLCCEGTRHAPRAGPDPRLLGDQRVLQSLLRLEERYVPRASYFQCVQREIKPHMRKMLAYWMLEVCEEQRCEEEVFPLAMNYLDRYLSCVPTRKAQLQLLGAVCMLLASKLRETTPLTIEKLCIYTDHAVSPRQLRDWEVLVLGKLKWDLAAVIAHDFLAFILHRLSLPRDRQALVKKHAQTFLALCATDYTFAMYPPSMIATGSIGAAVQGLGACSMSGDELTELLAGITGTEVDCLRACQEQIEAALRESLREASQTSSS
Counter-ions that a name gives are not always drawn.
Just the number, please; pKi means minus log10 of the concentration in mol/L.

Some solved cases for reference:
Nc1nc(NC2CCN(S(=O)(=O)c3ccc(-c4ncc[nH]4)nc3)CC2)sc1C(=O)c1c(F)cccc1F [Example I1, Hydrochloride] | 9.25
Nc1nc(NC2CCN(C(=O)c3ccno3)CC2)sc1C(=O)c1c(F)cccc1F | 7.66
Nc1nc(NC2CCN(S(=O)(=O)c3ccc(N4CCNCC4)nc3)CC2)sc1C(=O)c1c(F)cccc1F | 9.27
CS(=O)(=O)N1CCC(Nc2nc(N)c(C(=O)c3c(F)cccc3F)s2)CC1 | 8.23
CN(C)CCc1ccc(S(=O)(=O)N2CCC(Nc3nc(N)c(C(=O)c4c(F)cccc4F)s3)CC2)cn1 [Example N11, TFA Salt] | 9.41

Input: Return the recorded pKi value; entry: `Nc1nc(NC2CCN(C(=O)c3cccc([N+](=O)[O-])c3)CC2)sc1C(=O)c1c(F)cccc1F`
Output: 7.92

Input: In one line, give reported pKi of the entry Nc1nc(NC2CCN(S(=O)(=O)c3ccc(CCNc4cccc(O)c4)nc3)CC2)sc1C(=O)c1c(F)cccc1F [Example N6, Hydrochloride Salt] .
Output: 9.51

Input: Input `Nc1nc(NC2CCN(C(=O)c3ccncc3)CC2)sc1C(=O)c1c(F)cccc1F` , output reported pKi.
Output: 7.74

Input: Given `Nc1nc(NC2CCN(S(=O)(=O)c3ccc(C(=O)O)cc3)CC2)sc1C(=O)c1c(F)cccc1F` , respond with its pKi.
Output: 7.85

Input: Determine its reported pKi: CS(=O)(=O)N1CCCC(Nc2nc(N)c(C(=O)c3c(F)cccc3F)s2)C1 (stereo not drawn)
Output: 5.96

Input: Check the records and state pKi for Nc1nc(NC2CCN(S(=O)(=O)Nc3ccccc3)CC2)sc1C(=O)c1c(F)cccc1F [Example E2]
Output: 8.41

Input: Please list pKi recorded for the compound CN(C)CC(=O)N1CCC(Nc2nc(N)c(C(=O)c3c(F)cccc3F)s2)CC1 [Example D2]
Output: 6.92

Input: Fill in pKi for record Nc1nc(NC2CCN(S(=O)(=O)c3ccc(-c4c[nH]cn4)cc3)CC2)sc1C(=O)c1c(F)cccc1F [Example F30, Trifluoroacetic Acid Salt]
Output: 9.49

Input: Complete the entry with pKi for Nc1nc(NC2CCN(S(=O)(=O)c3ccc(-c4cccnc4)cc3)CC2)sc1C(=O)c1c(F)cccc1F [Example I8, Trifluoroacetic Acid Salt]
Output: 9.32

Input: Consider the compound `N#CCCCS(=O)(=O)N1CCC(Nc2nc(N)c(C(=O)c3c(F)cccc3F)s2)CC1` and give its recorded pKi.
Output: 8.47

----------
tested on: HCT-116 cell line; assay: Inhibition of cell growth, tetrazolium salt (MTT) assay; type: cell-based; settings: Homo sapiens, HCT-116, 120 h, first HCT-116 column (c4); MTT, three to five days; read-out: HCT-116 IC50
Counter-ions that a name gives are not always drawn.
Overview of recorded IC50 for various molecules
The response must be a number in nM with no trailing unit.

Solved cases below.
Nc1nc(NC2CCN(C(=O)c3ccncc3)CC2)sc1C(=O)c1c(F)cccc1F | 2800
CN(CCS(=O)(=O)N1CCC(Nc2nc(N)c(C(=O)c3c(F)cccc3F)s2)CC1)c1ccccc1 [Example K37, Trifluoroacetic Acid Salt] | 310
CN(CCCS(=O)(=O)N1CCC(Nc2nc(N)c(C(=O)c3c(F)cccc3F)s2)CC1)C1CCCCC1 [Example K61, Acetic Acid Salt] | 170

We next turn to a different molecule, shown below.
Input: Give the observed IC50 of CC1CCC(NCCS(=O)(=O)N2CCC(Nc3nc(N)c(C(=O)c4c(F)cccc4F)s3)CC2)CC1 (mixture of isomers) for HCT-116 cell line.
Output: 66

----------
tested on: HCT-116 cell line; assay: Inhibition of cell growth, tetrazolium salt (MTT) assay; format: cell-based; conditions: Homo sapiens, HCT-116, 120 h, first HCT-116 column (c4); MTT, three to five days; read-out: HCT-116 IC50
Where a name gives a salt, the structure may show the parent alone.
reported property: IC50 (nM)
Reply numerically in nM, unit not repeated.

Some entries whose results are on file:
CN(C)CCc1ccc(S(=O)(=O)N2CCC(Nc3nc(N)c(C(=O)c4c(F)cccc4F)s3)CC2)cn1 [Example N11, TFA Salt] | 140
Nc1nc(NC2CCN(S(=O)(=O)c3cnc(OCCN4CCCCC4)nc3)CC2)sc1C(=O)c1c(F)cccc1F [Example H23, Trifluoroacetic Acid Salt] | 93
Nc1nc(NC2CCN(S(=O)(=O)c3ccc(F)cc3)CC2)sc1C(=O)c1c(F)cccc1F [Example F17] | 70
Nc1ccc(S(=O)(=O)N2CCC(Nc3nc(N)c(C(=O)c4c(F)cccc4F)s3)CC2)cn1 [Example G8] | 590
Nc1nc(NC2CCN(S(=O)(=O)c3ccc(C4=NCCO4)cc3)CC2)sc1C(=O)c1c(F)cccc1F [Example J5] | 210

Input: Lab note: record IC50 of Nc1nc(NC2CCN(S(=O)(=O)c3cnc(Cl)nc3)CC2)sc1C(=O)c1c(F)cccc1F [Example F47] tested on HCT-116 cell line.
Output: 900

----------
target: human CDK4 and genetically truncated (1-264) cyclin D3 (Homo sapiens); experiment: Inhibition of CDK4/Cyclin D Retinoblastoma Kinase Activity; settings: apparent Ki, CDK4/truncated cyclin D3, Rb fragment substrate, 25 μM ATP
reported property: Ki (nM)
Provide the reading as a plain figure in nM.

CN1CCC(C(=O)N2CCC(Nc3nc(N)c(C(=O)c4c(F)cccc4F)s3)CC2)CC1 [Example D1] | 130
Nc1nc(NC2CCN(Cc3ccncc3)CC2)sc1C(=O)c1c(F)cccc1F [Example M2] | 33.5

Input: Identify measured Ki associated with CC1(C)CN(CCCS(=O)(=O)N2CCC(Nc3nc(N)c(C(=O)c4c(F)cccc4F)s3)CC2)CCN1 [Example K14]
Output: 2.9
